Target: S1P1 receptor (Homo sapiens, UniProt P21453)
Sequence (P21453 whole entry): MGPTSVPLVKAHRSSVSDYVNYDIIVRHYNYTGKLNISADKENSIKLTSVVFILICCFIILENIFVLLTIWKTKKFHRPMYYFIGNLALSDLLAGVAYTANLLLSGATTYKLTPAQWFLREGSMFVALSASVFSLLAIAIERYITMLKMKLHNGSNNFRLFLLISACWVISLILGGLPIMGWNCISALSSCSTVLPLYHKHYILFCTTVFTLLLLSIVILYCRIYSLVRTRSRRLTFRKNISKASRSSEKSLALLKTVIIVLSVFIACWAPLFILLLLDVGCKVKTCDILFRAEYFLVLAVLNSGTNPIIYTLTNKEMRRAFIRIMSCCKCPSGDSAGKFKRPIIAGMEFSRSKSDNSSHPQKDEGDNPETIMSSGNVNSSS
Experiment: 35S-GTPγS binding, membranes from CHO cells expressing S1P1
Settings: CHO cell membranes expressing S1P1
Experimental: Receptor binding assay: Membranes were prepared from CHO cells expressing S1P1 or S1P3 for use in ligand and 35S-GTPTS binding studies. […] Binding was performed for 60 min at room temperature on a shaker and bound radioactivity was measured on a PerkinElmer 1450 MicroBeta counter. Specific binding was calculated by subtracting remaining radioactivity in the presence of 1000-fold excess of unlabeled S1P. Binding data were analyzed using the GraphPad Prism program. […]
pEC50: −log10 of the molar value. Structures can show the parent of a compound that is named as a salt.
Assign rule met to entries whose pEC50 meets or exceeds 7; assign rule not met to the rest.

Fc1ccccc1-n1nnc(-c2nc(-c3cccc(F)c3F)no2)c1-c1ccncc1: rule met
Fc1ccccc1-c1noc(-c2nnn(-c3ccccc3F)c2-c2ccncc2)n1: rule met
NC(=O)C1CCN(Cc2ccc(-c3noc(-c4nnn(-c5ccccc5F)c4-c4ccncc4)n3)cc2)CC1: rule not met

Problem: Decide: is the reported value of pEC50 for Fc1ccccc1-c1noc(-c2nnn(-c3ccccc3F)c2C2CCCO2)n1 (centres unmarked) equal to or greater than 7?
Solution: rule not met

Problem: # check: pEC50 of Fc1ccc(-c2noc(-c3nnn(-c4ccccc4F)c3-c3ccccc3)n2)c(F)c1 is greater than or equal to 7
Solution: rule met

Problem: Form field: pEC50 at least 7? Entry: COc1cccc(-c2noc(-c3nnn(-c4ccccc4F)c3-c3ccccn3)n2)c1
Solution: rule not met

Problem: Please check the record Fc1ccccc1-n1nnc(-c2nc(-c3ccc4[nH]cnc4c3)no2)c1-c1ccncc1 and state if its pEC50 is at or above 7.
Solution: rule not met

Problem: Determine whether this molecule has pEC50 no lower than 7: O=C(O)[C@@H]1CCCN1Cc1ccc(-c2noc(-c3nnn(-c4ccccc4F)c3-c3ccncc3)n2)cc1
Solution: rule not met

Problem: Decide: is the reported value of pEC50 for CCN1CCc2ccc(-c3noc(-c4nnn(-c5ccccc5F)c4-c4ccncc4)n3)cc2C1 equal to or greater than 7?
Solution: rule not met

Problem: Answer whether pEC50 of COCc1c(-c2nc(-c3cccnc3)no2)nnn1-c1ccccc1F is greater than or equal to 7.
Solution: rule not met

Problem: Record Cc1ccc(-c2noc(-c3nnn(-c4ccccc4F)c3-c3ccncc3)n2)cc1 ; criterion: pEC50 no lower than 7. Met?
Solution: rule met

Problem: Tell me whether pEC50 is at least 7 here: Oc1ccc(-c2noc(-c3nnn(-c4ccccc4F)c3-c3ccccc3)n2)c(F)c1
Solution: rule met

Problem: Evaluate Fc1ccccc1-n1nnc(-c2nc(-c3ccc(CNC4CC4)cc3)no2)c1-c1ccncc1 : pEC50 at minimum 7?
Solution: rule met

Problem: Is pEC50 for Fc1ccccc1-n1nnc(-c2nc(-c3ccc4c(c3)CCN4)no2)c1-c1ccncc1 [Example 156, hydrochloride] at or above 7?
Solution: rule met

Problem: Say whether Fc1ccccc1-n1nnc(-c2nc(-c3ccc(CN4CCC(F)(F)CC4)cc3)no2)c1-c1ccncc1 shows pEC50 of 7 or more.
Solution: rule not met

Problem: Is pEC50 at least 7? Consider Fc1ccccc1-n1nnc(-c2nc(-c3cccc(Cn4cncn4)c3)no2)c1-c1ccncc1
Solution: rule not met

Problem: Form field: pEC50 at least 7? Entry: COCc1c(-c2nc(-c3cccc(S(N)(=O)=O)c3)no2)nnn1-c1ccccc1F
Solution: rule not met

Problem: Could you please find out whether OC1CN(Cc2ccc(-c3noc(-c4nnn(-c5ccccc5F)c4-c4ccncc4)n3)cc2)C1 has pEC50 that meets 7 or exceeds it?
Solution: rule met

Problem: Kindly determine if pEC50 recorded for COCc1c(-c2nc(-c3ccc(S(N)(=O)=O)cc3)no2)nnn1-c1ccccc1F is above or exactly 7.
Solution: rule not met
